These measurements were taken from PubChem BioAssay (NCI).

# method description: NCI Yeast Anticancer Drug Screen. Data for the sgs1 strain (AID 173);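 also: 0% = growth of vehicle-only control cultures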
# experimental context: S. cerevisiae sgs1 mutant, at 33.0 µM, stronger effect = higher value
Compounds without any hit were thinned out: in the full panel of roughly 79,000, 15% have a hit.
Lab note: compare growth inhibition against 30%. Equal or greater, write True. Smaller, write False.

Below, 5 compounds whose answers are already recorded.
{"columns": ["compound", "cat"],
 "data": [
  ["c1ccc(-c2nc3cccnc3s2)cc1", "False"],
  ["CCOC(=O)c1cc([N+](=O)[O-])cc([N+](=O)[O-])c1Sc1ncnc2nc[nH]c12", "True"],
  ["CCCCCCCCCCC(=O)Cl", "False"],
  ["CC(C)/C(Cl)=N\\OC(=O)Nc1ccc(F)cc1", "True"],
  ["C=CC(C)(O)CCC1C(=C)C(O)CC2C(C)(C)CCCC12C (centres undefined)", "True"]
]}

growth inhibition >= 30% for OC1CCCc2c1cc1ccc3cccc4ccc2c1c34 (centres undefined) ?
True

Try this compound too: O=C(COC(=O)c1cc(O)c(O)c(O)c1)c1ccc(-c2ccccc2)cc1
True

* * *

The entries below are paired with their reported growth inhibition.
# method description: NCI Yeast Anticancer Drug Screen. Data for the mec2-1 strain (AID 157)
# experimental context: S. cerevisiae mec2-1 strain, at 100.0 µM, stronger effect = higher value
About 79,000 compounds went through this panel and 15% of them were active in at least one assay; those are over-represented in the sample as a whole.
Reply numerically in %, unit not repeated.

Examples from the recorded data:
{"columns": ["compound", "property measured", "measurement"],
 "data": [
  ["Nc1ccccc1CC(O)C(=O)O (stereo not drawn)", "growth inhibition", 90],
  ["Cc1c(C(Cc2ccccc2N(C)C(=O)/C=C\\C(=O)O)c2c[nH]c3ccccc23)c2ccccc2n1C (stereo not drawn)", "growth inhibition", 51]
]}

Okay, next one:
Consider the compound Oc1cccc2c(Cl)ccnc12 and give its measured growth inhibition.
99

* * *

# method description: NCI Yeast Anticancer Drug Screen. Data for the wt2 strain (AID 169);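 also: 0% = growth of vehicle-treated yeast cultures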
# experimental context: S. cerevisiae wt2 strain growth inhibition; at 1.2 µM; stronger effect = higher value
# Protocol: Growth inhibition of yeast strains with defined genetic alterations is measured as a screen for potential anti-cancer activity. Selected strains with alterations in DNA damage repair or cell cycle control were exposed to compounds and growth inhibition was measured relative to vehicle treated controls. The strain used in this assay is wt2
The panel holds about 79,000 compounds, 15% with a hit somewhere; the sample as a whole holds those more often.
The entries below are paired with their reported growth inhibition.
Reply numerically in %, unit not repeated.

Consider the compound O=[N+]([O-])c1ccc2nc3ccccc3cc2c1 and give its measured growth inhibition.
0

Try this compound too: O=[N+]([O-])CC(SCc1ccccc1)c1ccc2c(c1)OCO2 (stereo unspecified)
1

Try this compound too: O=C1CSc2cc([N+](=O)[O-])ccc2N1
19

Try this compound too: O=C(c1ccc(Cl)cc1)C1OC12C(=O)Nc1ccccc12 (stereo unspecified)
9

Try this compound too: CCOC(=O)C(NC(=O)c1ccccc1)(N1CCN(c2cc3c(cc2F)c(=O)c(C(=O)O)cn3C2CC2)CC1)C(F)(F)F (stereo unspecified)
-1

Try this compound too: NC(=O)NN=C(CS)CS
0

Try this compound too: CC(C)C1=CC2=C[C@H](O)[C@H]3C(C)(C)CCC[C@]3(C)C2=C(O)C1=O
15

Try this compound too: Oc1cccc2c(Cl)ccnc12
38

Try this compound too: COC1C=COC2(C)Oc3c(C)c(O)c4c(c3C2=O)/C(=N/C2CCC(O)OC2C)C=C(NC(=O)/C(C)=C\C(=O)C2CC2C(O)C(C)C(O)C(C)C(OC(C)=O)C1C)C4=O (stereo unspecified)
-1

Try this compound too: CO[C@H]1C[C@](C)(O)Cc2cc3c(c(O)c21)C(=O)c1c(O)cc2c(c1C3=O)O[C@@H]1O[C@@]2(C)[C@H](O)[C@@H](N(C)C)[C@@H]1O
-19

Try this compound too: CCN(CC)CCNc1ccc([N+](=O)[O-])c2nc3ccc(OC)cc3c(N)c12
15

Try this compound too: Cn1c(N)nc(-c2ccc(Cl)cc2)c1SSc1c(-c2ccc(Cl)cc2)nc(N)n1C
-1

Try this compound too: O=C1Nc2ccccc2/C1=C/COc1ccccc1
-2

Try this compound too: COc1ccc2nc3cccc([N+](=O)[O-])c3c(NCCN(CCO)CCO)c2c1
-2

Try this compound too: C=C1CC(Cn2cc(Br)c(=O)[nH]c2=O)(c2ccc(-c3ccccc3)cc2)OC1=O (stereo unspecified)
2

Try this compound too: CCN(CC)CC[n+]1ccc2c(C)c3[nH]c4ccc(O)cc4c3c(C)c2c1
0

Try this compound too: O=C(COC(=O)c1cc(O)c(O)c(O)c1)c1ccc(-c2ccccc2)cc1
-3

Try this compound too: Cc1cc(I)ccc1N
-28

Try this compound too: CC(C)/C(Cl)=N\OC(=O)Nc1ccc(F)cc1
-1

Try this compound too: CCC(=O)OCCn1c2nc(=O)[nH]c(=O)c-2nc2cc(C)c(C)cc21
-8

Try this compound too: Clc1ccc(SC(/C=C/NNC2=NC(c3ccccc3)C(c3ccccc3)=NN2)c2ccccc2)cc1 (stereo unspecified)
0

Try this compound too: CCCCCCCCNC(=O)C1=C(C)NC(C)=C(C(=O)NCCCCCCCC)C1
1

* * *

# method description: NCI Yeast Anticancer Drug Screen. Data for the mgt1 strain (AID 153)
# experimental context: S. cerevisiae mgt1 mutant growth inhibition; at 1.2 µM; stronger effect = higher value
# Procedure: Growth inhibition of yeast strains with defined genetic alterations is measured as a screen for potential anti-cancer activity. Selected strains with alterations in DNA damage repair or cell cycle control were exposed to compounds and growth inhibition was measured relative to vehicle treated controls. The strain used in this assay is mgt1
This is part of a sample that, as a whole, favours compounds with a hit. Of some 79,000 tested, about 15% had one in any assay. Activity calls are given as the source filed them. No stated cut-off is given here; in the data, active means growth inhibition above about 70%; inactive means the rest.
property measured: growth inhibition

{"columns": ["compound", "growth inhibition"],
 "data": [
  ["C[S+](C)C1(c2ccccc2)C(=O)c2ccccc2C1=O", "2% (inactive)"],
  ["Cc1[nH]c2ccccc2c1C(c1ccc(N)cc1)c1c(C)[nH]c2ccccc12", "-3% (inactive)"],
  ["Cc1ccc(Nc2nc3c(=O)n(C)c(=O)n(C)c3nc2Nc2ccc(C)cc2)cc1", "-2% (inactive)"],
  ["OCC(Cn1cncn1)(c1ccc(F)cc1F)n1cncn1 (stereo not given)", "33% (inactive)"]
]}

Okay, next one:
Consider the compound CC(C)=CC(=O)O[C@@H]1CC(C)(C)CC2C3=CCC4[C@]56CC[C@](O)(OC5)C(C)(C)C6CC[C@@]4(C)C3(C)CC[C@]21C(=O)O (stereo not given in full) and give its measured growth inhibition.
-15% (inactive)

* * *

The entries below are paired with their reported growth inhibition.
# method description: NCI Yeast Anticancer Drug Screen. Data for the mgt1 strain (AID 153)
# experimental context: S. cerevisiae mgt1 mutant growth inhibition; at 33.0 µM; stronger effect = higher value
About 79,000 compounds went through this panel and 15% of them were active in at least one assay; those are over-represented in the sample as a whole.
Reply numerically in %, unit not repeated.

{"columns": ["compound", "measurement"],
 "data": [
  ["CN=C(N)N/N=C/c1ccc2c(c1)Cc1ccccc1-2", 14],
  ["CCCCCCCCCCCCCC[N+](C)(CC(=O)[O-])Cc1ccccc1 (stereo not given)", 99],
  ["N#Cc1c(N)[nH]c2ccc(Sc3ccccc3)cc12", 96],
  ["CN(C)c1ccc(C(C#N)=C(C#N)C#N)cc1", -4],
  ["[N-]=[N+]=NC1=C(c2ccccn2)C(=O)c2cccc3cccc1c23", 10],
  ["COc1cc(C2SCC(=O)N2c2nnc(C(F)(F)F)s2)cc(OC)c1OC (stereo not given)", -1],
  ["CCC(=O)OCCn1c2nc(=O)[nH]c(=O)c-2nc2cc(C)c(C)cc21", 75],
  ["CC(C)OC(=O)Oc1ccccc1OC(=O)OC(C)C", 2]
]}

Consider the compound CC(=O)Cc1ccc[cH-]1.[Fe+2].c1cc[cH-]c1 and give its measured growth inhibition.
11

Try this compound too: O=C(CCCN1CCC2(CC1)CC(=O)N(N1CCCCCC1)C2=O)c1ccc(F)cc1
75

Try this compound too: CC[C@@]1(O)C(=O)OCc2c1cc1n(c2=O)Cc2cc3c(CN(C)C)c(O)ccc3nc2-1
11

Try this compound too: COc1ccc(/C=C/C(=O)C(C)(C)Br)cc1
27

Try this compound too: O=C1C2C=CC1C1C(=O)OC(=O)C21 (stereo not given)
-17

Try this compound too: COc1ccc(O)c(/C=N\Nc2ccccc2)c1
-6

Try this compound too: CC(C)(C)c1nc2c(o1)C(=O)c1ccccc1C2=O
75

Try this compound too: O=C(N=Nc1cc(Cl)ccc1Cl)NNc1cc(Cl)ccc1Cl
-12

Try this compound too: CC(=O)Nc1ccc(SC(C)=O)cc1
44

Try this compound too: Cc1nc(-[n+]2nc(-c3ccncc3)nn2-c2ccccc2)sc1C
54

Try this compound too: Cc1cc2c(cc1C(=O)CCC(=O)O)CC1(C2)Cc2cc(C)c(C(=O)CCC(=O)O)cc2C1
36

Try this compound too: Cc1ccc(-c2ccc(Nc3c4ccccc4nc4ccccc34)cc2)cn1
83

Try this compound too: O=C(c1ccc(Cl)cc1)C1OC12C(=O)Nc1ccccc12 (stereo not given)
100

Try this compound too: O=C(CC(=O)n1nc(-c2ccccc2)c(N=Nc2ccccc2C(=O)O)c1-c1ccccc1)Nc1ccc(Cl)cc1
-6
